Provenance of the data: PubChem BioAssay AID1159580

experiment: chemical genetic growth profiling, strain panel (AID 1159580);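 note: tested at 20 µM; growth read once vehicle control cultures reached saturation at 30 °C; 1 = growth at the plate median or of vehicle wells; lower values mean less growth of the strain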; details: S. cerevisiae deletion strains, growth OD, locus YCL016C, strain dcc1, hits give low values
About 2,000 (36%) of roughly 5,500 compounds were called active. Another 18% or so got no clear call; they are omitted. Some of the results follow.
Listed compounds paired with reported normalized growth
// response body must contain only the number

Looking up COC(=O)[C@]1(C)CCC[C@]2(C)c3ccc(C(C)C)cc3C(=O)CC12 (stereo not given in full) , I see its normalized growth listed as 0.979

* * *

assay: chemical genetic growth profiling, strain panel (AID 1159580);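 note: tested at 20 µM; growth read once vehicle control cultures reached saturation at 30 °C; 1 = growth at the plate median or of vehicle wells; lower values mean less growth of the strain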; conditions: S. cerevisiae deletion strains, growth OD, locus YML120C, strain ndi1, hits give low values
About 2,000 (36%) of roughly 5,500 compounds were called active. Another 18% or so got no clear call; they are omitted. The list shows a part of the results.
Listed compounds paired with reported normalized growth
// response body must contain only the number

As a guide, the following entries are already answered.
compound	obs.value
COc1ccccc1/C=C\C(=O)O	0.994
CCCCC1C(=O)N(c2ccccc2)N(c2ccc(O)cc2)C1=O (stereo unspecified)	1.01
CC(=O)O[C@@H]1CC2C(C)(C)C(=O)C=C[C@]2(C)C2CC[C@@]3(C)[C@H](c4ccoc4)OC(=O)[C@H]4O[C@]43[C@@]21C (stereo partly specified)	0.965
CC(C)c1c(O)ccc2c1CCC1C(C)(C)CCC[C@]21C (stereo partly specified)	0.235
COC(=O)c1c(C)cc(OC)cc1O	0.988
CCC(=O)c1c(O)cc(O)cc1O	0.991
COc1ccc(-c2cc(=O)c3c(O)cc(O[C@H]4O[C@H](CO[C@@H]5O[C@@H](C)[C@H](O)[C@@H](O)[C@H]5O)[C@@H](O)[C@H](O)[C@H]4O)cc3o2)cc1	1
NC(N)=NC(=O)c1nc(Cl)c(N)nc1N	1.01

Looking up CC1(C)C2CC(=O)[C@]3(C)C(CC[C@@]4(C)[C@H](c5ccoc5)OC(=O)[C@H]5O[C@]543)[C@@]2(C)C(=O)C[C@H]1O (stereo partly specified) , I see its normalized growth listed as 1.01

Looking up COc1cc(OC)c2c(=O)c(O)c(-c3ccc(OC)c(OC)c3)oc2c1 , I see its normalized growth listed as 0.948

Looking up COC1=CC(=O)C(O)=C/C1=C\C=C\c1ccccc1 , I see its normalized growth listed as 0.0568

Looking up CC(C)c1c(O)c(-c2cc3c(c(C(C)C)c2O)CCC2C(C)(C)CCC[C@]32C)cc2c1CCC1C(C)(C)CCC[C@]21C (stereo partly specified) , I see its normalized growth listed as 1

Looking up CCCCCc1c2c(cc(O)c1C(=O)O)OC(=O)c1c(cc(OC)cc1C(=O)CCCC)O2 , I see its normalized growth listed as 0.995

Looking up COC(=O)c1c(C)cc(O)cc1O , I see its normalized growth listed as 0.993

Looking up Cc1cc(OC(=O)c2c(C)cc(O)cc2O)cc(O)c1C(=O)O , I see its normalized growth listed as 0.994

Looking up NC(=O)CN1CCCC1=O , I see its normalized growth listed as 0.983

Looking up CCCCCC(=O)Cc1cc(O)cc(O)c1C(=O)Oc1cc(CC(=O)CCCCC)c(C(=O)O)c(OC)c1 , I see its normalized growth listed as 0.898

Looking up CC1(C)C2CC(=O)[C@]3(C)C(CC[C@@]4(C)[C@H](c5ccoc5)OC(=O)C5OC543)[C@@]2(C)[C@@H](O)C[C@H]1O (stereo partly specified) , I see its normalized growth listed as 1.01

Looking up COc1cc(O)c2c(=O)c(O)c(-c3ccc(O)c(O)c3)oc2c1 , I see its normalized growth listed as 0.879

Looking up CC1(C)C(=O)C=C[C@@]2(C)C1C[C@@H](O)[C@]1(C)C2CC[C@@]2(C)[C@H](c3ccoc3)OC(=O)[C@H]3O[C@]321 (stereo partly specified) , I see its normalized growth listed as 1

Looking up CN(C)c1ccc2nc3ccc(=[N+](C)C)cc-3sc2c1 , I see its normalized growth listed as 1.04
